Catalogue of melting point values

>  <structure as smiles>
O=C(Nc1nc2ccccc2s1)c1ccc(N(Cc2ccc(F)cc2)C(=O)[C@H]2O[C@@H]2C(=O)Nc2ccccc2Br)cc1

>  <melting point>
179.2 to 180.1 °C

$$$$
>  <structure as smiles>
O=C(Nc1cccc(Br)c1)[C@H]1O[C@@H]1C(=O)N(Cc1ccccc1)c1ccccc1

>  <melting point>
177.5 to 178.2 °C

$$$$

Q) # lookup: melting point of COc1ccc(NC(=O)[C@H]2O[C@@H]2C(=O)N(Cc2ccc(F)cc2)c2ccc(C(=O)Nc3nc4ccccc4s3)cc2)cc1
A) 200.1 to 201.2 °C

Q) # lookup: melting point of O=C(Nc1ccccc1Br)[C@H]1O[C@@H]1C(=O)N(Cc1ccccc1)c1ccccc1
A) 113.2 to 114.3 °C

Q) # lookup: melting point of O=C(Nc1ccc(F)cc1)[C@H]1O[C@@H]1C(=O)N(Cc1ccccc1)c1ccccc1
A) 153.8 to 154.7 °C

Q) # lookup: melting point of O=C(Nc1nc2ccccc2s1)c1ccc(N(Cc2ccccc2)C(=O)[C@H]2O[C@@H]2C(=O)Nc2ccc(Cl)c(Cl)c2)cc1
A) 217.6 to 218.3 °C

Q) # lookup: melting point of O=C(Nc1nc2ccccc2s1)c1ccc(N(Cc2ccc(F)cc2)C(=O)[C@H]2O[C@@H]2C(=O)Nc2ccc(Cl)cc2Cl)cc1
A) 206.7 to 207.5 °C

Q) # lookup: melting point of O=C(Nc1nc2ccccc2s1)c1ccc(N(Cc2ccc(F)cc2)C(=O)[C@H]2O[C@@H]2C(=O)Nc2ccc(Cl)c(Cl)c2)cc1
A) 218.2 to 219.1 °C

Q) # lookup: melting point of O=C(Nc1nc2ccccc2s1)c1ccc(N(Cc2ccc(F)cc2)C(=O)[C@H]2O[C@@H]2C(=O)Nc2cccc(Cl)c2Cl)cc1
A) 210.2 to 211.1 °C

Q) # lookup: melting point of O=C(Nc1ccc(Cl)c(Cl)c1)[C@H]1O[C@@H]1C(=O)N(Cc1ccccc1)c1ccccc1
A) 174.5 to 175.7 °C

Q) # lookup: melting point of O=C(Nc1nc2ccccc2s1)c1ccc(N(Cc2ccc(F)cc2)C(=O)[C@H]2O[C@@H]2C(=O)Nc2ccc(F)cc2)cc1
A) 199.7 to 200.5 °C

----------
Tested on: enterovirus EV71 (BrCr strain)
protocol: Activity screening for anti-enterovirus EV71: inhibition of cytopathic effect in Vero cells
Type: cell-based
assay setup: Vero cells
Catalogue of SI (Selectivity Index = TC50/IC50) values
Field format: numeric only.

For orientation, consider the following solved cases.
>  <structure as smiles>
O=C(Nc1ccccc1F)[C@H]1O[C@@H]1C(=O)N(Cc1ccccc1)c1ccccc1

>  <measured number>
5.22

$$$$
>  <structure as smiles>
O=C(Nc1ccc(Cl)cc1)[C@H]1O[C@@H]1C(=O)N(Cc1ccccc1)c1ccccc1

>  <measured number>
46.43

$$$$
>  <structure as smiles>
COc1ccc(NC(=O)[C@H]2O[C@@H]2C(=O)N(Cc2ccccc2)c2ccc(C(=O)Nc3nc4ccccc4s3)cc2)cc1OC

>  <measured number>
7.49

$$$$
>  <structure as smiles>
COc1ccc(NC(=O)[C@H]2O[C@@H]2C(=O)N(Cc2ccc(F)cc2)c2ccc(C(=O)Nc3nc4ccccc4s3)cc2)cc1OC

>  <measured number>
3.00

$$$$

Q) # lookup: SI (Selectivity Index = TC50/IC50) of O=C(Nc1ccccc1Br)[C@H]1O[C@@H]1C(=O)N(Cc1ccccc1)c1ccccc1
A) 3.04

Q) # lookup: SI (Selectivity Index = TC50/IC50) of O=C(Nc1cccc(F)c1)[C@H]1O[C@@H]1C(=O)N(Cc1ccccc1)c1ccccc1
A) 3.00

Q) # lookup: SI (Selectivity Index = TC50/IC50) of O=C(Nc1ccc(Cl)c(Cl)c1)[C@H]1O[C@@H]1C(=O)N(Cc1ccccc1)c1ccccc1
A) 2.08
